Each entry below carries its recorded fold affinity vs original.
# measurement-target: binding partner of C5A (XPA23)
# experiment: Biacore
Supply the numeric figure in fold, leaving out any unit text.

Field fold affinity vs original (entry C5A (XPA23) VH G56N (antibody, V domains shown) VH: EVQLLESGGGLVQPGGSLRLSCAASGFTFSKYFMFWVRQAPGKGLEWVSVISPSGNMTRYADSVKGRFTISRDNSKNTLYLQMNSLRAEDTAVYYCARVGYGGNSDYWGQGTLVTVSS VL: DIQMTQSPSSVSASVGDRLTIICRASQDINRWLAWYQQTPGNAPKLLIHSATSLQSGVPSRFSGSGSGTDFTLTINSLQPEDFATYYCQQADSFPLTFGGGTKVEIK ) reads 1.06

Continue with the binder presented below.
fold affinity vs original recorded for this binder, C5A (XPA23) VH R59S (antibody, V domains shown) VH: EVQLLESGGGLVQPGGSLRLSCAASGFTFSKYFMFWVRQAPGKGLEWVSVISPSGGMTSYADSVKGRFTISRDNSKNTLYLQMNSLRAEDTAVYYCARVGYGGNSDYWGQGTLVTVSS VL: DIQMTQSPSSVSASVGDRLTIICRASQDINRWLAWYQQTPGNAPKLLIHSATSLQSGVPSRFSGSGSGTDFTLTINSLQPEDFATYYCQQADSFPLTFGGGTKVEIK , is 0.13
